- Test system: M14 melanoma
- ASSAY_SUMMARY: NCI tumour cell line growth inhibition, 48 h
GI50 values, listed per item

Please review the following examples before continuing.
{"COMPOUND": "COc1ncc(-c2ccc3nccc(C#CCCCCC(=O)O)c3c2)cc1NS(=O)(=O)c1ccc(F)cc1F", "MEASUREMENT_TARGET": "M14 melanoma", "GI50": "1.61 µM"}
{"COMPOUND": "O=C1NC(=O)/C(=C/c2c(Cl)nc3sccn23)S1", "MEASUREMENT_TARGET": "M14 melanoma", "GI50": "66.4 µM"}

IN: Using the record for C=C1C(=O)O[C@H]2[C@H]1CC/C(CNC(=O)c1cccc3ccccc13)=C\CC[C@@]1(C)O[C@@H]21 , report its GI50.
OUT: 1.57 µM

IN: Reported GI50 for COc1cc(/C=C/C(=O)Nc2ccc3c(c2)/C(=C\c2cccn2C)C(=O)N3)cc(OC)c1OC : what is it?
OUT: 6.7 µM

IN: Please look up its GI50: C[CH2][Sn]([CH2]C)([O]C(=O)c1cccc(OC)c1)[O][Sn]([CH2]C)([CH2]C)[O]C(=O)c1cccc(OC)c1
OUT: 30.9 µM

IN: Using the record for CC1(C)CCC2(CC1)N[C@@H](C(=O)N[C@@H]1CC[C@@H](C(N)=O)OC1)[C@H](c1ccnc(Cl)c1F)[C@]21C(=O)Nc2cc(Cl)ccc21 , report its GI50.
OUT: 2.14 µM

IN: What GI50 value was documented for this compound, CCOC(=O)c1ccc2c(c1)[n+](=O)c(C(=O)C1CCCS1)c(C(F)(F)F)n2[O-] (stereo unspecified) ?
OUT: 0.388 µM

----------
Overview of reported TGI across a group of molecules:
- Tested on: LXFL 529 NSCLC
- ASSAY_SUMMARY: NCI tumour cell line growth inhibition, 48 h

Consider the following illustrative entries.
{"MOLECULE": "CC1=C(C(=O)Nc2ccc([N+](=O)[O-])cc2)C(c2cccc([N+](=O)[O-])c2)C(C(=O)Nc2ccc([N+](=O)[O-])cc2)=C(C)N1", "MEASUREMENT_TARGET": "LXFL 529 NSCLC", "RESULT": "> 100 µM"}
{"MOLECULE": "CC1(C)OC(=O)C(c2cccs2)C(=O)O1", "MEASUREMENT_TARGET": "LXFL 529 NSCLC", "RESULT": "> 100 µM"}
{"MOLECULE": "COc1nc(NC2OC(COC(C)=O)C(OC(C)=O)C(OC(C)=O)C2OC(C)=O)c2c(OC(C)=O)c(C)c(=O)oc2n1 (stereo not drawn)", "MEASUREMENT_TARGET": "LXFL 529 NSCLC", "RESULT": "> 100 µM"}
{"MOLECULE": "CC(C)=CCCC(C)[C@H]1CC(O)C2(C)C3=CCC4C(C)(C)[C@@H](O)CC[C@]4(C)C3=CC[C@]12C (stereo partly drawn)", "MEASUREMENT_TARGET": "LXFL 529 NSCLC", "RESULT": "5.09 µM"}

IN: Quick one: TGI for Sc1ccccc1S ?
OUT: > 100 µM

IN: Fill in the blank: the reported TGI of Cn1c2c([N+](=O)[O-])cccc2c(=O)c2c(O)cc3c(c21)C=CC(C)(C)O3 is ____.
OUT: > 100 µM

IN: Reported TGI for CNc1ccc(/C=C2\C=Cc3ccccc32)cc1 : what is it?
OUT: > 100 µM

IN: Consider the molecule O=C1[C@@H]2C(c3cccc([N+](=O)[O-])c3)=NO[C@@H]2C(=O)N1c1ccc(Cc2ccc(N3C(=O)[C@H]4C(c5cccc([N+](=O)[O-])c5)=NO[C@H]4C3=O)cc2)cc1 and give its measured TGI.
OUT: > 100 µM

IN: Tell me the measured TGI of CCOC(=O)C(C(CC(=O)OC)NC(=O)OCc1ccccc1)C1(C)OCCO1 (stereo not drawn) , please.
OUT: > 100 µM

IN: Quick check: TGI of O=C1C(Cl)C(c2cc(Br)cc(Br)c2O)N1n1cnc2ccccc2c1=O (stereo not drawn) ?
OUT: > 100 µM

IN: Find the recorded TGI belonging to COc1ccc(C(c2ccc(C(C)C)cc(OC)c2=O)c2ccc(C(C)C)cc(OC)c2=O)cc1 and report it.
OUT: 28.1 µM

IN: What does the record list as TGI for CCOC(=O)/C(=C\c1ccccc1)C(=O)CCN1CCOCC1 ?
OUT: 3.52 µM

IN: Need TGI, item COc1ccc2c(c1)C1C(CO2)C(c2ccccc2)=NN1c1ccccc1 (stereo not drawn)
OUT: > 100 µM
